- protocolSummary: Plasma clearance in C57BL6 mouse at 2 mg/kg, iv and 5 mg/kg, po
- Format: ADME, organism-based
measuredProperty: clearance (mL/min/kg)

{"structureSmiles": "CC(C)c1nc(N2CCN(c3ncc(OCc4ccncc4C#N)cn3)[C@H](C)C2)no1", "measurementUnit": "mL/min/kg", "val": 49}

###

- protocolSummary: Half life in C57BL6 mouse at 2 mg/kg, iv
- Format: ADME, organism-based
- Parameters: dose 2 mg/kg, route intravenous
- testConditions: in vivo
measuredProperty: half-life (h)

{"structureSmiles": "CC(C)c1nc(N2CCN(c3ncc(OCc4ccncc4C#N)cn3)[C@H](C)C2)no1", "measurementUnit": "h", "val": 1}

###

- protocolSummary: physchem
- testConditions: octanol/water, pH 7.4
Below: a set of entries, each annotated with reported logD.
measuredProperty: logD

{"structureSmiles": "CC(C)(C)OC(=O)N1CCC(c2ncc(OCc3ccc(S(C)(=O)=O)cc3)cn2)CC1", "measuredProperty": "logD", "val": 2.8}
{"structureSmiles": "CC(C)(C)OC(=O)N1CCN(c2cnc(OCc3ccc(S(C)(=O)=O)cc3)cn2)CC1", "measuredProperty": "logD", "val": 3.4}
{"structureSmiles": "C[C@@H]1CN(c2nc(C(F)(F)F)no2)CCN1c1ncc(OCc2ccncc2C#N)cn1", "measuredProperty": "logD", "val": 3.1}
{"structureSmiles": "Cc1cnccc1COc1cnc(N2CCN(C(=O)OC(C)(C)C)CC2)nc1", "measuredProperty": "logD", "val": 3.8}
{"structureSmiles": "C[C@@H]1CN(C(=O)OC(C)(C)C)CCN1c1ncc(OCc2ccc(S(C)(=O)=O)cn2)cn1", "measuredProperty": "logD", "val": 3}
{"structureSmiles": "CC(C)(C)OC(=O)N1CCN(c2ccc(OCc3ccc(S(C)(=O)=O)cc3)cc2)CC1", "measuredProperty": "logD", "val": 3.9}
{"structureSmiles": "C[C@@H]1CN(c2noc(C(F)F)n2)CCN1c1ncc(OCc2ccncc2C#N)cn1", "measuredProperty": "logD", "val": 2.9}

###

- protocolSummary: physchem
- testConditions: octanol/phosphate buffer, pH 7.4

{"structureSmiles": "CC(C)(C)OC(=O)N1CCN(c2ncc(OCc3ccncc3F)cn2)CC1", "logD": 3.6}
{"structureSmiles": "CC(C)(C)OC(=O)N1CCN(c2ncc(-c3ccc(OCC#N)cc3)cn2)CC1", "logD": 4.2}
{"structureSmiles": "Cc1cc(COc2cnc(N3CCN(C(=O)OC(C)(C)C)CC3)nc2)ccn1", "logD": 3.7}
{"structureSmiles": "C[C@@H]1CN(C(=O)OC(C)(C)C)CCN1c1ncc(OCc2ccc(S(C)(=O)=O)cc2C#N)cn1", "logD": 3.3}
{"structureSmiles": "C[C@@H]1CN(C(=O)OC(C)(C)C)C[C@H](C)N1c1ncc(OCc2ccc(S(C)(=O)=O)cc2)cn1", "logD": "> 3.6"}
{"structureSmiles": "CC(C)(C)OC(=O)N1CCN(c2ncc(OCc3ccc(S(C)(=O)=O)cc3)nn2)CC1", "logD": 2.9}
{"structureSmiles": "C[C@@H]1CN(C(=O)OC(C)(C)C)CCN1c1ncc(OCc2ccc(S(C)(=O)=O)cc2F)cn1", "logD": 3.7}
{"structureSmiles": "C[C@H]1CN(c2ncc(OCc3ccc(S(C)(=O)=O)cc3)cn2)CCN1C(=O)OC(C)(C)C", "logD": "> 3.6"}
{"structureSmiles": "C[C@@H]1CN(C(=O)OC(C)(C)C)CCN1c1ncc(OCc2ccc(C#N)cc2)cn1", "logD": "> 3.6"}
